Please go through the items and note down their IC50.
System: MDA-MB-468
Test: Antiproliferative activity against human MDA-MB-468 cells assessed as reduction in cell viability measured for 48 hrs by MTT assay
Format: functional, cell-based
Settings: MDA-MB-468, 48 h
Numbers only, in µM.

Field: example entries. Status: answers known.
[[record]]
item_smiles = "CC(C)n1cnc2c(NCc3cc(F)cnc3Cl)nc(N3CCC(C4CCN(CCO)CC4)CC3)nc21"
target_system = "MDA-MB-468"
quantitative_readout = 4.07

[[record]]
item_smiles = "OCCN1CCC(C2CCN(c3nc(NCc4ccc(F)c(Cl)c4)c4ncn(CC5CC5)c4n3)CC2)CC1"
target_system = "MDA-MB-468"
quantitative_readout = 2.82


Could you now consider this next compound?
Input: Enter measured IC50, system MDA-MB-468, for the compound shown: OCCN1CCC(C2CCN(c3nc(NCc4cccc(F)c4F)c4ncn(C5CCCC5)c4n3)CC2)CC1
Output: 3.69

---

Molecular target: Dual specificity tyrosine-phosphorylation-regulated kinase 1A (Homo sapiens, UniProt Q13627)
Kindly state pIC50 for each of the entries shown.
One number for each entry, as −log10 of the molar value.

Some solved entries appear below for comparison.
[[record]]
item_smiles = "CC(C)n1cnc2c(NCc3ccc(F)c(F)c3)nc(N3CCC(C4CCN(CCO)CC4)CC3)nc21"
observed_property = "pIC50"
quantitative_readout = 6.10

[[record]]
item_smiles = "CC(C)n1cnc2c(NCc3ccccn3)nc(N3CCC(C4CCN(CCO)CC4)CC3)nc21"
observed_property = "pIC50"
quantitative_readout = 6.68

[[record]]
item_smiles = "OCCN1CCC(C2CCN(c3nc(NCc4cccc(F)c4F)c4ncn(C5CCCC5)c4n3)CC2)CC1"
observed_property = "pIC50"
quantitative_readout = 6.91

[[record]]
item_smiles = "CC(C)n1cnc2c(NCc3ccccc3)nc(N3CCC(C4CCN(CCO)CC4)CC3)nc21"
observed_property = "pIC50"
quantitative_readout = 6.06

[[record]]
item_smiles = "OCCN1CCC(C2CCN(c3nc(NCc4ccc(F)c(Cl)c4)c4ncn(CC5CC5)c4n3)CC2)CC1"
observed_property = "pIC50"
quantitative_readout = 5.41


// next entry
Input: Identify the reported pIC50 for the following entry. OCCN1CCC(C2CCN(c3nc(NCc4ccc(Cl)c(F)c4)c4ncn(C5CCCC5)c4n3)CC2)CC1
Output: 6.35

---

Record form. Attribute: IC50. Fill in for each entry.
Target: Dual specificity protein kinase CLK2 (Homo sapiens, UniProt P49760)
Sequence (P49760 whole entry): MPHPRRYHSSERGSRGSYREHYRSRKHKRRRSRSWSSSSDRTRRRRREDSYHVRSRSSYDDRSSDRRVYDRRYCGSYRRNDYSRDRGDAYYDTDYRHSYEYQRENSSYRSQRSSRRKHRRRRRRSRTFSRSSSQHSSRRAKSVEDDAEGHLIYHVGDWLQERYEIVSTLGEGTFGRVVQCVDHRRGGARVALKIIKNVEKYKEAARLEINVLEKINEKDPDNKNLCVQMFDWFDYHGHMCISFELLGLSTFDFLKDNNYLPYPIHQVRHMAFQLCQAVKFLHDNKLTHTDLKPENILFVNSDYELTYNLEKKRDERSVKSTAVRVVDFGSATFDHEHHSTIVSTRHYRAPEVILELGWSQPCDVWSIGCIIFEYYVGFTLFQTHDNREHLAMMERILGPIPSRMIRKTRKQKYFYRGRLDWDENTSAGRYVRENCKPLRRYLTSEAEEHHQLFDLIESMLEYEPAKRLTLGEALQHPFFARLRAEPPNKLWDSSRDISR
Test: Inhibition of CLK2 (unknown origin)

[[record]]
item_smiles = "OCCN1CCC(C2CCN(c3nc(NCc4ccc(F)c(Cl)c4)c4ncn(CC5CC5)c4n3)CC2)CC1"
target_system = "Dual specificity protein kinase CLK2 (Homo sapiens, UniProt P49760)"
result = "194 nM"


Provide the reported IC50 of each entry below, same order.
1. CC(C)n1cnc2c(NCc3ccccn3)nc(N3CCC(C4CCN(CCO)CC4)CC3)nc21
2. CC(C)n1cnc2c(NCc3ccc(F)c(F)c3)nc(N3CCC(C4CCN(CCO)CC4)CC3)nc21
3. CC(C)n1cnc2c(NCc3ccccc3)nc(N3CCC(C4CCN(CCO)CC4)CC3)nc21

Output:
1. 20 nM
2. 80 nM
3. 68 nM

---

Target: Casein kinase I isoform epsilon (Homo sapiens)
Sequence (P49674 whole entry, canonical isoform): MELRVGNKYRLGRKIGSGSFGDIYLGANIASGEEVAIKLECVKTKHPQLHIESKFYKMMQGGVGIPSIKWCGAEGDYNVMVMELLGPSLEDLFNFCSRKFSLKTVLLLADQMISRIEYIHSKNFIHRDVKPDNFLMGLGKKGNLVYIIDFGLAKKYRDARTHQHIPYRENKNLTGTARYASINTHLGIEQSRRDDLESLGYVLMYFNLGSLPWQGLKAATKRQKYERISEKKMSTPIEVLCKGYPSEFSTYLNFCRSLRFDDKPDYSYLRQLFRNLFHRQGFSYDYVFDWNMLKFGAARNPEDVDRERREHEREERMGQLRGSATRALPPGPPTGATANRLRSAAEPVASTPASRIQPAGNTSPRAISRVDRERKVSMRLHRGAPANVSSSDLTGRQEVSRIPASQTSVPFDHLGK
Assay: Inhibition of CK1epsilon (unknown origin)
Would you mind telling me the reported pIC50 of each entry?
Numbers only, as −log10 of the molar value.

[[record]]
item_smiles = "OCCN1CCC(C2CCN(c3nc(NCc4ccc(F)c(Cl)c4)c4ncn(CC5CC5)c4n3)CC2)CC1"
observed_property = "pIC50"
quantitative_readout = 6.53


// input: 5 compounds below; output: pIC50 for each
1. CC(C)n1cnc2c(NCc3ccccn3)nc(N3CCC(C4CCN(CCO)CC4)CC3)nc21
2. OCCN1CCC(C2CCN(c3nc(NCc4ccc(Cl)c(F)c4)c4ncn(C5CCCC5)c4n3)CC2)CC1
3. OCCN1CCC(C2CCN(c3nc(NCc4cccc(F)c4F)c4ncn(C5CCCC5)c4n3)CC2)CC1
4. CC(C)n1cnc2c(NCc3ccccc3)nc(N3CCC(C4CCN(CCO)CC4)CC3)nc21
5. CC(C)n1cnc2c(NCc3ccc(F)c(F)c3)nc(N3CCC(C4CCN(CCO)CC4)CC3)nc21

Output:
1: 6.78; 2: 6.71; 3: 7.42; 4: 6.11; 5: 6.38

// data source = ChEMBL document CHEMBL5634109
